Please respond with reported pEC50 for every item in the list.
- experimental-system: FPR1 (Homo sapiens (Human))
- run-description: Agonistic activity (calcium FLIPR) in hFPR1-Gα15-CHO cells
- details: FLIPR Calcium 5 dye fluorescence, agonistic response
pEC50: −log10 of the molar value.

Form: molecule = COCCN1CC(NC(=O)Nc2ccc(Cl)cc2)C(c2ccc(F)cc2F)CC1=O (single isomer, unassigned; ent2) [Example 64] ; pEC50 = 6.00 to 9.00

Form: molecule = O=C(Nc1ccc(Cl)cc1)NC1CN(C(=O)C2CC2)CCC1c1ccccc1 (single isomer, unassigned; ent1) [Example 83] ; pEC50 = 6.00 to 9.00

Form: molecule = COc1ccc(C2C(NC(=O)Nc3ccc(Cl)cc3)CCCN2C)cc1 (single isomer, unassigned; dia1) [Example 89] ; pEC50 = 6.00 to 9.00

Form: molecule = O=C1CC(c2ccc(F)cc2F)C(NC(=O)Nc2ccc(Cl)cc2)CN1 (single isomer, unassigned; ent1) [Example 67] ; pEC50 = 6.00 to 9.00

Form: molecule = O=C(Nc1ccc(Cl)cc1)NC1CNCCC1c1ccccc1 (single isomer, unassigned; ent1) [Example 80] ; pEC50 = 6.00 to 9.00

Form: molecule = COc1cc(F)c([C@@H]2CC(=O)NC[C@H]2NC(=O)Nc2cc(C)ns2)c(F)c1 (racemic) ; pEC50 = 6.00 to 9.00

Form: molecule = COc1ccc([C@@H]2CCN(C(C)=O)C[C@H]2NC(=O)Nc2cncnc2)cc1 (racemic) ; pEC50 = 6.00 to 9.00

Form: molecule = COc1cc(F)c(C2CCN(C(=O)C3CC3)CC2NC(=O)Nc2ccc(Cl)cc2)c(F)c1 (single isomer, unassigned; ent2) [Example 40] ; pEC50 = 6.00 to 9.00

Form: molecule = COc1ccc([C@@H]2CC(=O)N(C)C[C@H]2NC(=O)Nc2ccc(Cl)cc2)cc1 (stereo in doubt) [Example 7] ; pEC50 = > 9.00

Form: molecule = COc1ccc([C@@H]2CCN(C(C)=O)C[C@H]2NC(=O)Nc2ccc(Cl)cc2)cc1 (racemic) ; pEC50 = > 9.00

Form: molecule = COc1ccc([C@@H]2CCN(C(=O)CC(C)C)C[C@H]2NC(=O)Nc2ccc(Cl)cc2)cc1 (racemic) ; pEC50 = > 9.00

Form: molecule = COc1ccc([C@@H]2CCN(C(=O)CO)C[C@H]2NC(=O)Nc2ccc(Cl)cc2)cc1 (racemic) ; pEC50 = > 9.00

Form: molecule = COc1ccc(C2CCN(C(C)=O)C[C@H]2NC(=O)Nc2ccc(C)nc2)cc1 (mixture of isomers) ; pEC50 = 6.00 to 9.00

Form: molecule = COCCN1CC(NC(=O)Nc2ccc(Cl)cc2)C(c2ccc(F)cc2F)CC1=O (single isomer, unassigned; ent1) [Example 63] ; pEC50 = 6.00 to 9.00

###

- experimental-system: FPR1 (Homo sapiens (Human), UniProt P21462)
- Sequence (P21462 whole entry): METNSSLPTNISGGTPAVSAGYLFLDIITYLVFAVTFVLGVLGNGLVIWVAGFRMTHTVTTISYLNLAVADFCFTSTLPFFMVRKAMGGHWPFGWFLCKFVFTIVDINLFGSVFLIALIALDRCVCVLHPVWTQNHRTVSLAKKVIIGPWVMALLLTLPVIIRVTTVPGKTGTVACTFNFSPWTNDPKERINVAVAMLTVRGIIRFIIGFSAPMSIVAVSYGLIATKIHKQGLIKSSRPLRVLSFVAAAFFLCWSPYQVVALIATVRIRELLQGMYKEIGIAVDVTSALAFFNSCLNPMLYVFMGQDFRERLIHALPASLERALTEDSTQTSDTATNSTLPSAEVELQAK
- run-description: Agonistic activity (calcium FLIPR) in hFPR1-Gα15-CHO cells
- details: FLIPR Calcium 5 dye fluorescence, agonistic response
Please respond with reported EC50 for every item in the list.

Form: compound = COc1ccc([C@@H]2CC(=O)N(CC3CC3)C[C@H]2NC(=O)Nc2ccc(Cl)cc2)cc1 (racemic) [Example 24] ; EC50 = 1 to 1000 nM

Form: compound = COc1cc(F)c(C2CC(=O)NCC2NC(=O)Nc2ccc(Cl)cc2)c(F)c1 (single isomer, unassigned; ent1) [Example 49] ; EC50 = 1 to 1000 nM

Form: compound = COc1ccc([C@@H]2CCN(C(=O)C(C)(F)F)C[C@H]2NC(=O)Nc2ccc(Cl)cc2)cc1 (racemic) [Example 14] ; EC50 = < 1 nM

Form: compound = COc1ccc([C@@H]2CCN(C(C)=O)C[C@H]2NC(=O)Nc2ccc(C(F)(F)F)nc2)cc1 (racemic) [Example 27] ; EC50 = 1 to 1000 nM
